target: T1, native human ApoC3 (human, UniProt P02656 21-99); test: SPR, ApoC3 over captured IgG1
T1 construct: also called nhuApoC3; native huApoC3
T1 sequence (P02656 21-99): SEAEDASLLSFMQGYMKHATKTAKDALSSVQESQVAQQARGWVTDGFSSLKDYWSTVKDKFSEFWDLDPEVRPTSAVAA
RESULT TYPE: KD (nM) pH5.5/pH7.4
Format: numeric value only, no unit, no commentary.

Query :: Give its KD (nM) pH5.5/pH7.4 value. Item: mAb6 (antibody, IgG1, V domains shown, Produced as full length IgG1 (kappa) in ExpiCHO-S cells; also called humanized anti-ApoC3 antibody mAb6) VH: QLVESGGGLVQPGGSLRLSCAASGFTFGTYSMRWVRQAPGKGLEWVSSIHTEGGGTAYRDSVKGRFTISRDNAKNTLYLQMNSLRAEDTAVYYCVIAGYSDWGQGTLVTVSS VL: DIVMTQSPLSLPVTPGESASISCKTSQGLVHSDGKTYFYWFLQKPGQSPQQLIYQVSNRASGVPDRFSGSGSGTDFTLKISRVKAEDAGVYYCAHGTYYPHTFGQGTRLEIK
Result :: 5.22

Origin of values: patent US20200239555A1
